Experiment: qHTS for Inhibitors of human tyrosyl-DNA phosphodiesterase 1 (TDP1): qHTS in cells in absence of CPT; note: nearly all actives have a fitted effect of over 55% in size
Settings: DT40 Tdp1-/- hTDP1 cells, no CPT, ATP luminescence, 48 h
The campaign covered roughly 420,000 compounds. About 64,000 (15%) were called active. Another 27% or so got no clear call; they are omitted. Calls come from the whole dose curve; as a rule, active = well fitted inhibition curve with a large enough effect; inconclusive = small, poorly fitted or top-dose-only effect; inactive = flat fitted curve, though single readings scatter. Only a sample is shown.
Answer with one of the outcomes given here: TRUE (active), FALSE (inactive)

q: Outcome? COc1ccccc1CC(=O)Nc1ccc([N+](=O)[O-])cc1OC
a: FALSE

q: Outcome? COc1ccc(S(=O)(=O)NC(C)C(=O)Nc2cccc([N+](=O)[O-])c2)cc1 (stereo unspecified)
a: FALSE

q: Outcome? COc1cccc(C(=O)Nc2c3c(nn2-c2cccc(C)c2C)CS(=O)(=O)C3)c1OC
a: TRUE

q: Outcome? S=C(NC1CCCCC1)NN1CCOCC1
a: FALSE

q: Outcome? O=C(Nc1cccc(Cl)c1)c1cc(S(=O)(=O)N2CCCCC2)c[nH]1
a: FALSE

q: Outcome? CN(CC(=O)Nc1ccccc1[N+](=O)[O-])Cc1ccc(Br)cc1
a: FALSE

q: Outcome? Cc1cc(C)cc(NC(=O)COc2coc(CN3CCN(c4ccccc4)CC3)cc2=O)c1
a: FALSE

q: Outcome? CCOC(=O)C1CCCN(S(=O)(=O)c2ccc3c(c2)C(C)(C)C(=O)N3C)C1 (stereo unspecified)
a: FALSE

q: Outcome? COc1ccc(/C=N/OCc2ccccc2C#N)c(OC)c1
a: FALSE

q: Outcome? COc1ccccc1CC1(C)C(=O)Nc2ccc(OC(F)(F)F)cc21 (stereo unspecified)
a: FALSE

q: Outcome? CCC1(CC)NC(=O)N(Cc2nc3ccccc3s2)C1=O
a: FALSE
